Tested on: CCRIS mutagenicity, Ames/micronucleus/aberration tests
TEST SUMMARY: CCRIS mutagenicity studies
RUN CONDITIONS: Test System: AMES SALMONELLA TYPHIMURIUM; Strain/Indicator: TA1538; Metabolic Activation: NONE; Method: STANDARD PLATE
The source made the active and inactive calls. No rule for the calls is given here.
Hi there, use one of these labels in your reply, thanks! yes = active, no = inactive

Look up the recorded call for CCCCC(CC)COC(=O)c1ccccc1C(=O)OCC(CC)CCCC (stereo unspecified) in this test.
no

Look up the recorded call for O=Nc1c(-c2ccc([N+](=O)[O-])cc2)nc2sccn12 in this test.
yes

====

System: CCRIS mutagenicity, Ames/micronucleus/aberration tests
TEST SUMMARY: CCRIS mutagenicity studies
RUN CONDITIONS: Test System: AMES SALMONELLA TYPHIMURIUM; Strain/Indicator: TA1535; Metabolic Activation: NONE; Method: STANDARD PLATE
Calls of active or inactive are those of the source. How the calls were made is not given here.
Hi there, use one of these labels in your reply, thanks! active, inactive

CCOCCc1c(-c2ccccc2)nc(N)n2ncnc12 : inactive

Look up the recorded call for Cl/C=C\CCl in this test.
active

Look up the recorded call for CN(N=O)C(=O)c1c(N(C)C(=O)OC(C)(C)C)ncn1C in this test.
active

Look up the recorded call for Cl[Si](Cl)(Cl)Cl in this test.
inactive

Look up the recorded call for C1CC2OC2CCC2OC12 (centres undefined) in this test.
inactive

====

Tested on: CCRIS mutagenicity, Ames/micronucleus/aberration tests
TEST SUMMARY: CCRIS mutagenicity studies
RUN CONDITIONS: Test System: AMES SALMONELLA TYPHIMURIUM; Strain/Indicator: TA1537; Metabolic Activation: NONE; Method: STANDARD PLATE
Active and inactive are the calls of the source. The rule behind the calls is not given here.
Hi there, use one of these labels in your reply, thanks! active, inactive

Use these answered entries as a reference point.
O=C(CCl)Nc1snc2ccccc12 : active
COC(=O)[C@H]1[C@H]2C[C@@H]3c4[nH]c5cc(OC)ccc5c4CCN3C[C@H]2C[C@@H](OC(=O)c2cc(OC)c(OC)c(OC)c2)[C@@H]1OC : inactive
CCCCCCCCC=O : inactive

Look up the recorded call for CCCCCCCCCCCCCCCC(=O)OC[C@H](O)[C@H]1OC(=O)C(O)=C1O in this test.
inactive

Look up the recorded call for CN(N=O)C(=O)c1c(N(C)C(=O)OC(C)(C)C)ncn1C in this test.
inactive

Look up the recorded call for O=C1C=CC(=O)N1c1ccc(Cc2ccc(N3C(=O)C=CC3=O)cc2)cc1 in this test.
inactive

Look up the recorded call for O=c1[nH]cc(F)c(=O)[nH]1 in this test.
inactive

Look up the recorded call for CN(C)CCCn1cc[n+](C)c1/C=N/O in this test.
inactive

Look up the recorded call for Nc1ccc2c(=O)[nH]sc2c1 in this test.
inactive

Look up the recorded call for O=C1CC(c2ccc(O)cc2)Oc2cc(O)cc(O)c21 (centres undefined) in this test.
inactive

Look up the recorded call for Nc1ccc(N)c2c1C(=O)c1c(N)ccc(N)c1C2=O in this test.
active

Look up the recorded call for CC(=O)Nc1ccc(N=Nc2cc(C)ccc2O)cc1 in this test.
active

Look up the recorded call for CCCCCCCC/C=C\CCCCCCCC(=O)O in this test.
inactive

Look up the recorded call for [Cl][Fe]([Cl])[Cl] in this test.
inactive

Look up the recorded call for S=C([S-])NCCNC(=S)[S-].[Zn+2] in this test.
inactive

Look up the recorded call for COc1cc(CNC(=O)CCCCCCC(C)C)ccc1O in this test.
inactive

Look up the recorded call for C=C(C)C(=O)OCCCC in this test.
inactive

These measurements were taken from PubChem BioAssay AID1259407.
